Biological target: SARS-CoV-2 receptor binding domain (RBD), wild type (BEI NR52309) (SARS-CoV-2, UniProt P0DTC2 319-541)
Test: BLI competition on His-tagged RBD, signal of the 2nd Ab after 1st Ab 324
observable: RBD binding
Respond numerically, and do not add a unit to the figure.

Item: mAb 324 (antibody, V domains shown) VH: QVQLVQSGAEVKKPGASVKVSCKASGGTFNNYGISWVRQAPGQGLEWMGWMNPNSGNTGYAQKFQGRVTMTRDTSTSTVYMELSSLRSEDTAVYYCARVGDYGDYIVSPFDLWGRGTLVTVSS VL: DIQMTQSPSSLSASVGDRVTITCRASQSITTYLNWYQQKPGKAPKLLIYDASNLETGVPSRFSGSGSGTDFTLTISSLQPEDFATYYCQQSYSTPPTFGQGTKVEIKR | RBD binding: 0.4

Values were extracted from patent US20250263469A1.
